# Tested on: EKVX
# assayNotes: NCI tumour cell line growth inhibition, 48 h
Calls of active or inactive are those of the source. Rule as the data show it: active = GI50 up to about 1.1 µM and inactive = higher.
propertyName: GI50

Enquiry: Consider the compound C[C@H]1CC[P+](C)(c2ccccc2)C1 (stereo not given in full) and give its measured GI50.
Return: > 100 µM (inactive)

Enquiry: Continue with CN1Cc2c(nc(-c3ccccc3)c[n+]2[O-])N(C)C1
Return: > 100 µM (inactive)

Enquiry: Continue with C[Si](C)(C)/C(Br)=C\CCN1C(=O)CCC1O (stereo not given)
Return: > 100 µM (inactive)

Enquiry: Continue with Cc1ccsc1/C=N/Nc1nncc2ccccc12
Return: > 100 µM (inactive)

Enquiry: Continue with COc1cc2nc(-c3cccs3)nc(Nc3ccccc3C(=O)NN)c2cc1OC
Return: > 100 µM (inactive)

Enquiry: Continue with CCOC(=O)C(Cc1c(C=O)[nH]c2ccccc12)(NC(=O)c1ccccc1)C(=O)OCC
Return: 18.5 µM (inactive)

Enquiry: Continue with CC(CC(=O)N1C2CC3CCC2(CS1(=O)=O)C3(C)C)[Si](C)(C)C (stereo not given)
Return: > 100 µM (inactive)

Enquiry: Continue with O=C(Nc1ccccc1Cl)c1ccc([N+](=O)[O-])cc1
Return: 76.4 µM (inactive)

Enquiry: Continue with COc1cc([C@@H]2c3cc4c(cc3[C@@H](NC(=O)c3ccc(C(C)=O)cc3)C3COC(=O)[C@@H]32)OCO4)cc(OC)c1O (stereo not given in full)
Return: 1.89 µM (inactive)

Enquiry: Continue with O=C(O)c1ccccc1-c1ccccc1C(=O)Nc1ccc2c(c1)Cc1ccccc1-2
Return: 22.1 µM (inactive)

====

# Tested on: DMS-273
# assayNotes: NCI tumour cell line growth inhibition, 48 h
Activity calls are given as the source filed them. Cut-off read from the data, not from the text of the source: active = GI50 up to about 1.1 µM and inactive = higher. Non-standard residues stand in square brackets, D forms with d. Residues, ends and D or L forms follow the SMILES beside them.
Mark one answer only. Choices: active, inactive

Enquiry: // param item: Brc1cc2c(cc1Br)CN(c1ccccc1)C2 ; yields the recorded call
Return: inactive

Enquiry: Continue with CSc1ccc(N2C(=O)C3c4[nH]c5ccccc5c4C4CCC(C(C)(C)C)CC4C3C2=O)cc1 (centres undefined)
Return: inactive

Enquiry: Continue with CN1Cc2c(nc(-c3ccccc3)c[n+]2[O-])N(C)C1
Return: inactive

Enquiry: Continue with COC(=O)Cc1nc2ccccc2o1
Return: inactive

Enquiry: Continue with Cc1ccccc1C1OC(=O)c2ccc3ccccc3c21 (centres undefined)
Return: inactive

Enquiry: Continue with COc1ccc(N2C(=O)[C@@H]3[C@@H]4CC(C)CC[C@@H]4c4c([nH]c5ccccc45)[C@@H]3C2=O)cc1 (some centres undefined)
Return: inactive

Enquiry: Continue with O=C(CCN(C(=O)O)S(=O)(=O)c1ccc(NC(=O)c2ccccc2)cc1)NC1CCCCC1
Return: inactive

Enquiry: Continue with NC(CNc1ccc(O)cc1)C(=O)O (centres undefined)
Return: inactive

Enquiry: Continue with COc1ccc(/C=C2\N=C(c3ccccc3)OC2=O)c(OCc2ccccc2)c1
Return: inactive

Enquiry: Continue with CC1=C(C)CC2(CCCCC2=O)[S+]([O-])C1 (centres undefined)
Return: inactive

Enquiry: Continue with CC(C)(C)C1=CC(=N/N=c2\scc(-c3ccccc3)n2Cc2ccccc2)C=C(C(C)(C)C)C1=O
Return: inactive

Enquiry: Continue with COc1ccc(OC(C(=O)O)C(C)C)c2c1CCCC2=O (centres undefined)
Return: inactive

Enquiry: Continue with O=C(/C=C/c1ccc(O)c(O)c1)OC1C[C@@](O)(C(=O)O)C[C@@H](O)[C@H]1OC(=O)/C=C/c1ccc(O)c(O)c1 (some centres undefined)
Return: inactive

Enquiry: Continue with CCc1nc2c([nH]1)C(=O)c1ccccc1C2=O
Return: inactive

Enquiry: Continue with CC1=C2O[B-](c3ccccc3)(c3ccccc3)[O+]=C2C=CN1
Return: inactive

Enquiry: Continue with CC(=O)OC12c3ccccc3C1CCCC21OCCCO1 (centres undefined)
Return: inactive

Enquiry: Continue with O=C1CCC(=O)C12CCc1ccccc12
Return: inactive

Enquiry: Continue with Brc1ccc2c(C3CN[C@@H](c4c[nH]c5cc(Br)ccc45)CN3)c[nH]c2c1 (some centres undefined)
Return: inactive

Enquiry: Continue with CC1=CC(C)(C)N=C2SC(c3ccc(N)cc3)=NN12
Return: inactive

Enquiry: Continue with N#CC(C(=O)C(=O)Nc1ccc(Cl)cc1)c1ccccc1 (centres undefined)
Return: inactive

Enquiry: Continue with CN(C)CCNc1c2ccccc2c2c3c(cccc13)C(=O)N(CCN(C)C)C2=O
Return: active

Enquiry: Continue with O=C1C(c2ccc([N+](=O)[O-])cc2)=C(Cl)C(=O)c2c(O)cccc21
Return: inactive

Enquiry: Continue with C=C1C(=O)C23C(O)CC4C5(C)CCCC4(C(O)OC5)C2C(OC(C)=O)CC1C3O (centres undefined)
Return: inactive

Enquiry: Continue with CC(C)C[C@H](NC(=O)[C@H](CC(C)C)NC(=O)[C@@H](Cc1c[nH]c2ccccc12)NC(=O)[C@H](Cc1ccccc1)NC(=O)[C@@H](Cc1c[nH]c2ccccc12)NC(=O)[C@H](CCC(N)=O)NC(=O)[C@H](CCC(N)=O)NC(=O)[C@H]1CCCN1C(=O)[C@@H](N)CCCCN)C(N)=O (H-K[dP]QQ[dW]F[dW]LL-NH2)
Return: inactive

Enquiry: Continue with c1ccc(CSc2nc3ccccc3nc2-c2cccs2)cc1
Return: inactive

Enquiry: Continue with O=C(Nc1cccc(C(F)(F)F)c1)c1cc(-c2ccccc2)nc(S)n1
Return: inactive

Enquiry: Continue with O=c1/c(=C/c2ccccc2[N+](=O)[O-])sc2nc3ccccc3n12
Return: inactive

Enquiry: Continue with CC(C)=CCC/C(C)=C/Cc1c(O)c(C)cc2c1[nH]c1cc(O)ccc12
Return: inactive

Enquiry: Continue with CN(Cc1ccccc1)C(=NC#N)N(C)Cc1ccccc1
Return: inactive
